biological target: RlmH (ribosomal large-subunit methyltransferase H) (Escherichia coli, UniProt P0A8I8); construct: full length (155 residues, ~17 kDa), first Met replaced by MHHHHHHV (N-terminal His6 tag kept), expressed in E. coli BLR(DE3), homodimer; assay: isothermal titration calorimetry, sequential binding model; settings: 50 mM sodium phosphate pH 6.8, 200 mM KCl, 5% glycerol, 1 mM β-mercaptoethanol, 25 °C; first SAM site of the dimer; read-out: Calculated K D1
Sequence (P0A8I8 2-155): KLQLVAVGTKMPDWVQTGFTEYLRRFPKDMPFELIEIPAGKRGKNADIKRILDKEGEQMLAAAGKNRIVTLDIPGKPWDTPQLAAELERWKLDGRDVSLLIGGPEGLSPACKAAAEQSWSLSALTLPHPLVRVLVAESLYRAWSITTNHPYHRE
value kind: Kd (µM)
Answers are plain numbers, in µM.

Asked: For the compound C[S+](CC[C@H](N)C(=O)O)C[C@H]1O[C@@H](n2cnc3c(N)ncnc32)[C@H](O)[C@@H]1O (stereo partly shown) , what Kd is on record?
Given back: 5.58
